Field: T/C. Provide a value for each of the compounds that follow.
system: P388 leukemia ip, CD2F1 mice, survival T/C; assay: NCI In Vivo Anticancer Drug Screen. Data for tumor model P388 Leukemia (intraperitoneal) in CD2F1 (CDF1) mice; conditions: endpoint: median survival time; dose: 12.5 mg/kg/injection; schedule: Q01DX005 (ip); vehicle: Klucel (hydroxypropylcellulose) (HPC); higher = longer survival
Toxic doses and inconclusive results are not listed.

Which value of T/C has been reported for CC(=O)OC(OC(C)=O)C(CSC#N)SC#N (configuration not stated) in the records?
99 % of control

Follow-up item: COc1cc(OC)c(NC(=O)C(Sc2nc(C)cc(C)c2C#N)c2ccccc2)cc1Cl (configuration not stated)
89 % of control

Now consider `CCN(CCO)CCNc1ccc(C)c2sc3cc(Cl)ccc3c(=O)c12` and answer again.
104 % of control

How about CC1(C)NC2Cc3c([nH]c4ccccc34)C3(C)CCC1CC23 (configuration not stated) ?
94 % of control

What would you report for `COC(=O)C/C(=C\c1cn(C(C)=O)c2ccccc12)[N+](=O)[O-]` ?
98 % of control

Moving on to the next compound: `NC(N)=N/N=C/c1ccc(-c2cc3ccc(/C=N/N=C(N)N)cc3s2)cc1`
114 % of control

Next compound up: COc1cc2c(cc1OC)C1C(=O)c3c(O)cc4c(c3OC1CO2)C=CC(C)(C)O4 (configuration not stated)
98 % of control

----------
Please respond with reported T/C for every item in the list.
test system: P388 leukemia ip, CD2F1 mice, survival T/C; experiment: NCI In Vivo Anticancer Drug Screen. Data for tumor model P388 Leukemia (intraperitoneal) in CD2F1 (CDF1) mice; settings: endpoint: median survival time; dose: 12.5 mg/kg/injection; schedule: Q01DX009 (ip); vehicle: saline with Tween-80; higher = longer survival
Toxic doses and inconclusive results are not listed.

Look up T/C with P388 leukemia ip, CD2F1 mice, survival T/C for this compound: `CNC(=O)OCCN(CCOC(=O)NC)C(=O)N1c2ccccc2Sc2ccccc21`
94 % of control

Queued: `O=C1Nc2ccc([N+](=O)[O-])cc2/C1=C/C(=O)c1ccccc1`
96 % of control

// same read-out, input: Clc1ccccc1C=NCC1CCC(CN=Cc2ccccc2Cl)CC1 (configuration not stated)
101 % of control

Same lookup for `c1ccc2c(c1)nnn1c3ncccc3nc21` , please.
108 % of control

Entry to check: `NC(=Nc1ccccc1)Nc1ccccc1`
99 % of control

Then what about the compound `[Cu+2].[O-]c1ccc(Br)c2cccnc12.[O-]c1ccc(Br)c2cccnc12` ?
104 % of control

Quick one: CN(C)/C=N\c1ncnc2c1ncn2C1OC(CO)C(O)C1O (configuration not stated)
98 % of control

Consider next the compound `O=C1C=CC(=O)C2=C1CCCC2` in the same way.
102 % of control

And for `[CH3][Sn]1([CH3])[O]P(=O)(c2ccccc2)[O]1` ?
96 % of control

`N#Cc1cccc[n+]1Cc1ccc([N+](=O)[O-])cc1` ?
95 % of control

Try the compound `Clc1ccc2nc(CBr)cnc2c1`
104 % of control

Lookup `COc1ccc(/C=N/NC(=O)CNC(=O)c2ccc(Cl)c(Cl)c2)cc1`
107 % of control

----------
tested on: P388 leukemia ip, CD2F1 mice, survival T/C; assay: NCI In Vivo Anticancer Drug Screen. Data for tumor model P388 Leukemia (intraperitoneal) in CD2F1 (CDF1) mice; settings: endpoint: median survival time; dose: 3.12 mg/kg/injection; schedule: Q01DX009 (ip); vehicle: saline; higher = longer survival
Inconclusive results and toxic doses are left out.
Please respond with reported T/C for every item in the list.

Report T/C for `CCCCCCCCCCC[N+]1(CC)CCCC1` please.
111 % of control

Also, `CC(C)[CH2][Ge]([Cl])([Cl])[Cl]` please.
94 % of control

Query `C=Cc1cc[n+](CC(=O)c2ccccc2)cc1` next
90 % of control

Lookup `Nc1cccc(N)n1`
102 % of control

Check `c1ccc(Nc2ccncc2)cc1` too.
95 % of control

Please do the same for `CCC[CH2][Sn]([CH2]CCC)([CH2]CCC)[CH2]CC[N+](C)(C)C` as well.
101 % of control

----------
system: P388 leukemia ip, CD2F1 mice, survival T/C; assay: NCI In Vivo Anticancer Drug Screen. Data for tumor model P388 Leukemia (intraperitoneal) in CD2F1 (CDF1) mice; conditions: endpoint: median survival time; dose: 100.0 mg/kg/injection; schedule: Q04DX003 (ip); vehicle: saline with Tween-80; higher = longer survival
Inconclusive results and toxic doses are left out.
attribute_measured: T/C

What value of measured T/C is listed for [Cl][Sn]1([Cl])[N]2CCCCC2C2CCCC[N]21 (stereo not given) ?
97 % of control

Same question, `O=C1c2cc(O)c(O)cc2O[C@H](c2ccc(O)c(O)c2)[C@H]1O` this time
100 % of control

Follow-up item: `NC(=S)N/N=C/c1cc(Br)ccc1O`
86 % of control

Same read-out for CCC(c1ccc2cc(OC)ccc2c1)C(C)(C)C(=O)F (stereo not given) ?
87 % of control

What do you get for `N#Cc1cnc2nc1NCCCCCCC2` ?
100 % of control

Also need `COc1ccc(-n2nnnc2N(C)c2ccccc2)cc1` , thanks.
94 % of control

Same again, this time with `Cc1cc(-c2ccccc2)c2ccccc2c1N(CC(=O)O)S(=O)(=O)c1ccccc1`
100 % of control

// query: CC(=O)OCC1OC(n2ccc(=S)[nH]c2=O)C(OC(C)=O)C1OC(C)=O (stereo not given)
100 % of control

Also check `Cc1csc(NC(=S)NC(=O)c2ccccc2)n1`
91 % of control

Moving on to the next compound: `Nc1nc2n(n1)C(=O)C(=O)N2`
106 % of control

----------
tested on: P388 leukemia ip, CD2F1 mice, survival T/C; assay: NCI In Vivo Anticancer Drug Screen. Data for tumor model P388 Leukemia (intraperitoneal) in CD2F1 (CDF1) mice; details: endpoint: median survival time; dose: 25.0 mg/kg/injection; schedule: Q01DX009 (ip); vehicle: saline; higher = longer survival
Inconclusive results and toxic doses are left out.
attribute_measured: T/C

Identify the measured T/C of N#CC(C#N)C1C=C/C(=N\O)C1 (stereo unspecified) for P388 leukemia ip, CD2F1 mice, survival T/C.
101 % of control

And what about the compound `O=C(O)c1c(Cl)c(Cl)c(Cl)c(Cl)c1-c1c2cc(I)c(=O)c(I)c-2oc2c(I)c(O)c(I)cc12` ?
88 % of control

Proceed to `C[n+]1cccc(C2=CCCC2)c1`
100 % of control

Now the compound `C[N+](c1ccc(Cl)cc1)=S(C)(C)=O`
98 % of control

Another compound to look at: C=C1CC2(OC1=O)C(=O)N(C)c1ccc(I)cc12 (stereo unspecified)
116 % of control

Ok, now `O=C1c2ccccc2C(=O)N1CCS(=O)(=O)O`
104 % of control

----------
test system: P388 leukemia ip, CD2F1 mice, survival T/C; assay: NCI In Vivo Anticancer Drug Screen. Data for tumor model P388 Leukemia (intraperitoneal) in CD2F1 (CDF1) mice; settings: endpoint: median survival time; dose: 240.0 mg/kg/injection; schedule: Q01DX005 (ip); vehicle: Klucel (hydroxypropylcellulose) (HPC); higher = longer survival
Inconclusive results and toxic doses are left out.
attribute_measured: T/C

Under P388 leukemia ip, CD2F1 mice, survival T/C: T/C value of COc1ccccc1C1OC2=Nc3cc(C)c(C)cc3NC2C1=O (configuration not stated) ?
95 % of control

Let us now turn to CC(=O)/C=C1/NC=CN(C(=O)c2ccccc2)C1c1ccccc1 (configuration not stated)
87 % of control

Another: `COc1ccc(C(=O)C(=O)c2ccc(OC)cc2)cc1`
100 % of control

Next compound up: `CCOc1c(N=Nc2ccc([N+](=O)[O-])cc2)c(C)nn1C(=S)SC`
87 % of control

Next compound up: O=C(NC1COB(c2cc(C(F)(F)F)cc(C(F)(F)F)c2)OC1c1ccc([N+](=O)[O-])cc1)C(Cl)Cl (configuration not stated)
99 % of control

Another compound: COc1ccc(C(c2cc3c(cc2O)OCO3)N2CCN(C(c3ccc(OC)c(OC)c3)c3cc4c(cc3O)OCO4)CC2)cc1OC (configuration not stated)
105 % of control

Moving on to O=C1OC(O)c2cccc3cccc1c23 (configuration not stated)
94 % of control

And what about the compound `O=c1oc(NC2CCCCC2)nc2ccccc12` ?
92 % of control

`Cn1cnc2c1c(=O)n(N)c(=O)n2C` , same question.
92 % of control

// repeat for CC1=C(C(N)=O)C(/C=C/c2ccccc2)NC(=S)N1 (configuration not stated) and report
100 % of control

Same for O=C1/C(=C/c2ccccc2)CCCC12C(c1ccccc1)N2Cc1ccccc1 (configuration not stated)
88 % of control

Here is the next compound: `Oc1cccnc1[Se]`
110 % of control

Data origin: PubChem BioAssay AID330
